- measured.on: HER2 (Homo sapiens (Human), UniProt P04626)
- Sequence (P04626 23-1255, species assumed): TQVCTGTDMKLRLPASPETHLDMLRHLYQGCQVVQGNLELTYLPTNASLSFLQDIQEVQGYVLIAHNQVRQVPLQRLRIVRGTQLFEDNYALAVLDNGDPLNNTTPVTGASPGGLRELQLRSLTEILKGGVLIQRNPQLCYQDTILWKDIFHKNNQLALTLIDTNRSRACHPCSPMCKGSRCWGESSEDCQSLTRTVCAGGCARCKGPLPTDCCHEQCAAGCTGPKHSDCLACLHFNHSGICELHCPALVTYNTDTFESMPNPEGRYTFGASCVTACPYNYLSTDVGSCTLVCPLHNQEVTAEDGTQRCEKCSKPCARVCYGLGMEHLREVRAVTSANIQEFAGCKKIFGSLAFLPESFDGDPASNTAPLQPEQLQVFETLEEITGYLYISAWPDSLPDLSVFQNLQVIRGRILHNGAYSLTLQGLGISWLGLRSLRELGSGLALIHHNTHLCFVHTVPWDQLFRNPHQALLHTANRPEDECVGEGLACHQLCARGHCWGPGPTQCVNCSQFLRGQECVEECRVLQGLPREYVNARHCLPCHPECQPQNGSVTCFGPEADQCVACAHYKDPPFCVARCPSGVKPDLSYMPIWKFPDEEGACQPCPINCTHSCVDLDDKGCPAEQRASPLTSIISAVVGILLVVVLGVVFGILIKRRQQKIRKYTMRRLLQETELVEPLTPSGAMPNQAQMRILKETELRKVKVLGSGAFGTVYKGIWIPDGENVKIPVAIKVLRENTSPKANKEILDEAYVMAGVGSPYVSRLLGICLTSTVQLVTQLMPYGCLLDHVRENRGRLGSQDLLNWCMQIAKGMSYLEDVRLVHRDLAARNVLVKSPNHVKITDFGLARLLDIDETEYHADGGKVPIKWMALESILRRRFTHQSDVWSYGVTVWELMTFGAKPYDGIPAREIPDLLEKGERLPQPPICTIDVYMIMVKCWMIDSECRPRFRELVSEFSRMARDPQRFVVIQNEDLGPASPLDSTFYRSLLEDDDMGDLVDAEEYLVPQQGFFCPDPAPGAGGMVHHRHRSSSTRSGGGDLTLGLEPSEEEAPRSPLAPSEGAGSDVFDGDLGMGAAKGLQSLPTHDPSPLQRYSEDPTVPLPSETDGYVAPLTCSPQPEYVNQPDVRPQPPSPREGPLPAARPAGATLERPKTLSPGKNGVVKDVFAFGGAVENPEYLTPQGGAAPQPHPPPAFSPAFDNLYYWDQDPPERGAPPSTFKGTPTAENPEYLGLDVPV
measured.endpoint: pIC50
Value format note: pIC50 is -log10 of concentration (mol/L); just state the number.

pIC50 recorded for this compound, C=CC(=O)N[C@H]1CC[C@@H](n2nc(-c3ccc(Oc4ccccc4)cc3)c3c(N)ncnc32)CC1 [Compound 9] , is 5.81

---

- measured.on: BTK (Homo sapiens (Human))
- Sequence (Q06187 whole entry): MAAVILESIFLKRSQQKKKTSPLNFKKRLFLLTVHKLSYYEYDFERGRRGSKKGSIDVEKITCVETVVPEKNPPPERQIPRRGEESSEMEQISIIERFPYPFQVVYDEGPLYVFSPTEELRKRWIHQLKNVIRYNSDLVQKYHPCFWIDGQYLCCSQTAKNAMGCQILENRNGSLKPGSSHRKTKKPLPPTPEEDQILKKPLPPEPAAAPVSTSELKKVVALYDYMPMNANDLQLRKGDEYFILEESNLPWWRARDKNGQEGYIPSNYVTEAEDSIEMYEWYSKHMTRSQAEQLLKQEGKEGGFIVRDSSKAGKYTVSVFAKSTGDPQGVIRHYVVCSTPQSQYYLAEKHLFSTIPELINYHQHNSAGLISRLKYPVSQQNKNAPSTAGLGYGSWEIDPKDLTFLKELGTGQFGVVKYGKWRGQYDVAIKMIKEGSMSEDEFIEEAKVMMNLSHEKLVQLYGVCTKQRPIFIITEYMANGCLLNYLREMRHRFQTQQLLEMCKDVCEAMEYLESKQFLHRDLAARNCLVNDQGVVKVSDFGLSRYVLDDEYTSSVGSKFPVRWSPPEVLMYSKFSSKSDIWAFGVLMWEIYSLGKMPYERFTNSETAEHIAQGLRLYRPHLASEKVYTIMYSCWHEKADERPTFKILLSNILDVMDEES
pIC50: −log10 of the molar value.
Parameter threshold = 8. Response is 1 (yes) when pIC50 meets or exceeds it, else 0 (no).

Item CC#CC(=O)N1CCC[C@@H](n2nc(-c3ccc(Oc4ccccc4)cc3)c3c(N)ncnc32)C1 [Compound 17] with pIC50 of 8 or above? 1 (yes)

Item C=CC(=O)NCCn1nc(-c2ccc(Oc3ccccc3)cc2)c2c(N)ncnc21 [Compound 23] with pIC50 of 8 or above? 1 (yes)

Item CC#CC(=O)N1CCC[C@@H]1Cn1nc(-c2ccc(Oc3ccccc3)cc2)c2c(N)ncnc21 [Compound 15] with pIC50 of 8 or above? 1 (yes)

Item CC#CC(=O)N[C@H]1CC[C@@H](n2nc(-c3ccc(Oc4ccccc4)cc3)c3c(N)ncnc32)CC1 [Compound 22] with pIC50 of 8 or above? 1 (yes)

Item Nc1ncnc2c1c(-c1ccc(Oc3ccccc3)cc1)nn2[C@@H]1CCCCN1C(=O)/C=C/c1c[nH]cn1 [Compound 4] with pIC50 of 8 or above? 0 (no)

Taken from patent US20240317756A1.
